# key: entry, value: melting point

Record excerpt, results attached:
[[record]]
compound = "CC12CCC(=O)C=C1CCC1C3CC(OCC4CO4)C(O)(C(=O)CO)C3(C)CC(O)C12F (stereo unspecified)"
reported_result = "191 to 192 °C"

[[record]]
compound = "O=C(O)c1ccc(-c2nc(-c3ccccc3C(F)(F)F)cs2)cc1"
reported_result = "225 to 227 °C"

[[record]]
compound = "c1ccc(NCC2CCNCC2)cc1"
reported_result = "60 to 61 °C"

[[record]]
compound = "COc1cc2c(cc1OC)NC(=O)CCC2"
reported_result = "153 to 156 °C"

[[record]]
compound = "CC1=CC=CC(O)(C(=N)N)C1C (stereo unspecified)"
reported_result = "110 to 111 °C"

[[record]]
compound = "OC1CCN(c2cc(-c3ccccc3)nc(-c3ccccc3)n2)CC1"
reported_result = "158 to 160 °C"

[[record]]
compound = "O=C1OCc2ccccc2C1=NO"
reported_result = "181 to 185 °C"

[[record]]
compound = "O=C(Nc1ccc2cc(CN3CCCC3)cnc2c1F)c1ccc(-c2ccc(Cl)cc2)cc1F"
reported_result = "208 °C"


State its melting point: COc1cccc(OC)c1C(=O)C=Cc1c(Cl)cccc1Cl 127 to 128 °C

State its melting point: CCC(=O)c1ccc2c(ccn2S(=O)(=O)c2ccc(C)cc2)c1 162 to 164 °C

State its melting point: O=C(NCc1ccc(Cl)cc1)c1cnc2c(CNCc3ccccc3)cc(CN3CCOCC3)cc2c1O 214 to 216 °C

State its melting point: CNC(=O)c1ccccc1Nc1nc(Nc2cc3c(cc2OC)CCN(CC(=O)N(C)C)CC3)ncc1Br 225 °C

State its melting point: C/C=C(/c1ccc(C(=O)O)cc1)c1ccc2c(c1)C(C)(C)CCC2(C)C 212 °C

State its melting point: CCn1nc(C)c(-c2ccc3c(c2)NC(=O)CO3)c1-c1ccc(F)cc1 161 °C

* * *

PROPERTY_LABEL: melting point

Record excerpt, results attached:
[[record]]
compound = "COc1ccc(Sc2ccncc2)c(N)c1"
property_label = "melting point"
reported_result = "93 to 94 °C"

[[record]]
compound = "Nc1cnc2ccc(C(F)(F)F)cc2c1-c1ccccc1"
property_label = "melting point"
reported_result = "107 to 108 °C"

[[record]]
compound = "CCCCCOC(=O)NS(=O)(=O)CCc1cc(OCCCC)nn1Cc1ccc(Cl)cc1Cl"
property_label = "melting point"
reported_result = "91 to 93 °C"

[[record]]
compound = "COc1cc(N2CCCN(C[C@@H](C)O)CC2)ccc1Nc1ncc2ccc(-c3ccccc3N(C)S(C)(=O)=O)n2n1"
property_label = "melting point"
reported_result = "93 to 99 °C"

[[record]]
compound = "COc1ccc(CNc2ccnc(Cl)c2C(=O)O)cc1Cl"
property_label = "melting point"
reported_result = "228 to 230 °C"


State its melting point: O=c1c2cc(F)c(F)cc2[nH]c2c1cnn2-c1ccccn1 > 300 °C

State its melting point: COC(=O)C(=C/c1cc(OC)c(OC)c(OC)c1)/C(=C\c1ccccc1)C(N)=O 144 to 146 °C

State its melting point: CC(=O)c1nn(CCOS(C)(=O)=O)cc1C 108 to 109 °C
